experiment: blockers of RIG-like receptor reporter activation – cell-based, Sendai virus stimulus, luciferase, 10K MLSCN set, TLR/RLR signaling modifier project, primary screen (AID 602276); settings: HEK293 RL24 IRF3 luciferase reporter, at 10 µM, active compounds read high;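 note: firefly luciferase from ISG56 promoter only with Renilla not read in this screen; 0% = Sendai virus plus DMSO and 100% = medium plus DMSO without virus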
A collection of compounds and their measured inhibition
// note: answer is a bare numeric in %

CN1C(=O)CC(N2CCC(C(N)=O)(N3CCCCC3)CC2)C1=O (stereo not drawn); 15
CCOC(=O)C1=C(C)NC(C)=C(C(=O)OCC)C1c1cc(N)ccc1OC(F)F; 8.52
COc1ccc(Cl)cc1S(=O)(=O)N1CCN(c2ccc(F)cc2)CC1; 46.4
CCOc1cc(NC(=O)c2ccco2)c(OCC)cc1NC(=O)CCC(=O)NCc1cccnc1; 9.41
O=C(CCNC(=O)c1ccc(Br)o1)NC1CCCC1; 14.4
CCOC(=O)CCCOC(=O)c1ccc(S(=O)(=O)N(C)C)cc1; 0.818
Cc1cccc(Cn2c(SCC(=O)Nc3ccccc3)nc3c2c(=O)[nH]c(=O)n3C)c1; 14.6
CCOC(=O)c1cc2sccc2n1Cc1ccccc1; -10.3

Now for the compound whose inhibition we want.
**Q:** Fill blank: measured inhibition of the compound Cn1c(C(=O)OCC(=O)NCC2CCCO2)cc2sccc21 (stereo not drawn) is ____.
**A:** 13.3

---

assay: inhibitors of TNFa-induced NFkB p65 translocation, primary screen, imaging, HUVEC, MLSMR starter and 10KST1 sets (AID 438); conditions: HUVEC TNFa-induced p65 nuclear translocation; at 2 µM, active compounds read high, 0% TNFa-plus-vehicle, 100% no-TNFa wells;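 note: compound added about 3h40 before a 20 min TNFalpha stimulation; signal is the nuclear over cytoplasmic p65 intensity ratio per well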
inhibition for assorted molecules
// note: answer is a bare numeric in %

O=C(CN1CCC(O)(c2ccc3c(c2)OCO3)CC1)OC1CCCCC1; -3.6
CC1CCN(CCc2nc3cc(NS(=O)(=O)c4ccc(F)cc4)ccc3n2C)CC1; 6.1
COc1ccc(-n2ccnc2SCC(=O)NCc2ccc3c(c2)OCO3)cc1; 0.2

**Q:** Report inhibition for `NCc1cccc(-n2cccn2)c1` please.
**A:** -8.9

**Q:** Can you look up the measured inhibition of CCCSC1=C(C#N)C(c2cc(OC)ccc2OC)CC(=O)N1 (centres undefined) for me?
**A:** 5.8

**Q:** Name the reported inhibition value associated with the molecule CCC(C(=O)N1CCc2cc(OC)c(OC)cc2C1)c1ccccc1 (centres undefined)
**A:** 5

---

assay: endothelial E-selectin expression blockers – imaging, HUVEC, immunofluorescence, MLSMR starter and 10KST1 sets, primary screen (AID 487); conditions: HUVEC TNFalpha-induced E-selectin immunofluorescence imaging, at 2 µM; active compounds read high;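 note: signal is fraction of cell area covered by stained E-selectin grains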
Decide using inhibition: a value greater than or equal to -40% is criterion met, a smaller one is criterion not met.

Below, 3 compounds whose answers are already recorded.
CCN(CC)c1ccc(NC(=O)CN2C(=O)CC(C)(C)S(=O)(=O)c3ccccc32)c(C)c1; criterion not met
Cc1ccc2oc(C(=O)Nc3c(C)n(C)n(-c4ccccc4)c3=O)c(C)c2c1; criterion met
CCOC(=O)c1ccc(N(CC(=O)NC2CCCC2)C(=O)CNC(=O)c2ccco2)cc1; criterion met

**Q:** Is inhibition at least -40%? Consider `N#CCC(=O)N1CCn2c1nc1ccccc12`
**A:** criterion met

**Q:** Test whether the compound `N#Cc1ccccc1Cn1c(=O)n(Cc2ccc(C(=O)NCc3ccco3)cc2)c(=O)c2ccccc21` records inhibition of -40% or higher.
**A:** criterion not met

**Q:** Please check the record COc1cc(C)nc(N2CCCC(C(=O)Nc3cccc(Cl)c3Cl)C2)n1 (stereo not given) and state if its inhibition is at or above -40%.
**A:** criterion met

**Q:** Would you say CCCOC(=O)c1[nH]c2c(c1C)C(=O)CC(c1cc(OC)c(OC)c(OC)c1)C2 (stereo not given) shows inhibition at minimum -40%?
**A:** criterion not met

**Q:** Does `COc1ccc(C(=O)N2CCSC2=S)cc1OC` have a reported inhibition of at least -40%?
**A:** criterion met

**Q:** Form field: inhibition at least -40%? Entry: `O=C(c1ccccc1)N1CCN(Cc2ccccc2Br)CC1`
**A:** criterion met

**Q:** I'd appreciate it if you could say whether `COc1ccc(-n2c(SCC#N)nc3ccccc3c2=O)cc1` has inhibition at least equal to -40%.
**A:** criterion met
